Species on record: Rattus norvegicus
Assay: Selectivity ratio of Ki for adenosine A2A receptor in Sprague-Dawley rat striatal membrane to Ki for adenosine A1 receptor in Sprague-Dawley rat whole brain
# Ratio Ki binned as bottom end: < 5; midrange: ≥ 5 and < 40; top end: ≥ 40

As a guide, the following entries are already answered.
# Structure smiles, Class name
rows = [
    ("CN(C)C(=O)Oc1cccc(-c2cc(-c3ccccc3)nc(N)n2)c1", "midrange"),
    ("Nc1nc(-c2ccccc2)cc(-c2cccc(OC(=O)N3CCCC3)c2)n1", "midrange"),
    ("Nc1nc(-c2ccccc2)cc(-c2cccc(OC(=O)N(c3ccccc3)c3ccccc3)c2)n1", "top end"),
    ("CC(C)N(C(=O)Oc1cccc(-c2cc(-c3ccccc3)nc(N)n2)c1)C(C)C", "top end"),
    ("CN1CCN(C(=O)Oc2cccc(-c3cc(-c4ccccc4)nc(N)n3)c2)CC1", "bottom end"),
]

Prompt: Quick check: band for Nc1nc(-c2ccccc2)cc(-c2cccc(OC(=O)N3CCCCC3)c2)n1
Response: bottom end

Prompt: Assign a bin to Nc1nc(-c2ccccc2)cc(-c2cccc(OC(=O)N3CCOCC3)c2)n1
Response: bottom end

Prompt: For CCN(CC)C(=O)Oc1cccc(-c2cc(-c3ccccc3)nc(N)n2)c1 , which Ratio Ki bin applies?
Response: top end

Prompt: Quick check: band for CN(C(=O)Oc1cccc(-c2cc(-c3ccccc3)nc(N)n2)c1)c1ccccc1
Response: midrange
